conditions: 313.15 K; 101.33 kPa; Liquid; Vibrating tube method
± gives the expanded uncertainty stated by the source.

# MOLECULE, mass density
data = [
    ("CC(C)Cn1cc[n+](C)c1.O=S(=O)([N-]S(=O)(=O)C(F)(F)F)C(F)(F)F", "1422.9 ± 1.8 kg/m3"),
    ("CCCC[N+]1(C)CCCCC1.O=S(=O)([N-]S(=O)(=O)C(F)(F)F)C(F)(F)F", "1369.5 ± 0.6 kg/m3"),
    ("CC(C)C[N+]1(C)CCCC1.O=S(=O)([N-]S(=O)(=O)C(F)(F)F)C(F)(F)F", "1386.8 ± 1.7 kg/m3"),
]

* * *

assay: refractive index (Na D-line) (dimensionless); conditions: 288.15 K; 101.33 kPa; Liquid; Standard Abbe refractometry

# MOLECULE, refractive index
records = [
    ("CCCC[n+]1cccc(C)c1.O=S(=O)([N-]S(=O)(=O)C(F)(F)F)C(F)(F)F", 1.44894),
    ("CCCC[N+]1(C)CCCC1.O=S(=O)([N-]S(=O)(=O)C(F)(F)F)C(F)(F)F", 1.42612),
    ("Cc1ccc[n+](CC(C)C)c1.O=S(=O)([N-]S(=O)(=O)C(F)(F)F)C(F)(F)F", 1.44902),
    ("CC(C)C[N+]1(C)CCCCC1.O=S(=O)([N-]S(=O)(=O)C(F)(F)F)C(F)(F)F", 1.43387),
]
